PBM binding z-score values, listed per item
- Test system: PPARg homodimer (NR concentration 180 nM)
- Experiment description: PBM binding z-score (relative to random genomic background probes); higher = stronger binding; sequences stand for … in GC…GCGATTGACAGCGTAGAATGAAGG
# respond with the number and nothing more

> print(dat)
                           seq.string  numeric.result
1  CCTACTGGGCCATTCAGAGGTCATTGACCATATG            2.02
2  CTCGAAAGGTCGTGCTCAGGTGAGTAGACCAAAC            3.39
3  AGAATGAGGTTATTAAGATCAGGGATTTGCGGTC           0.911
4  GGAACGAGGCCAAAGTTGATAGCATCTGTCGACG           0.104
5  AGAAAGAGGTTATACGTAGATCAGGGAAGAAAGT           0.915

The sequence TCTTGTAGATCAAAGGTAAAGAAAGCCGAAGCCT showed PBM binding z-score equal to 0.519

The sequence TTACCAAGGTGAAAGGTCGTCGATGCACGCCTTG showed PBM binding z-score equal to 1.99

The sequence CCGACTGGAGCAGAAAGGTTACCATACCATCCGG showed PBM binding z-score equal to 0.708

The sequence ATCGAAAGGTCGACGACGTGAGTATACACCGTTT showed PBM binding z-score equal to 1.37

The sequence GCTGCTAGGTCTGGTTGGTCAGCTAACGGGTACG showed PBM binding z-score equal to -0.461

The sequence ATGTCTAGGTAAAGTTCAGTGAAAGATCGATAGA showed PBM binding z-score equal to 1.69

The sequence CCGACCGGGGCAGAAAGGTTACCATACCATCCGG showed PBM binding z-score equal to 0.496

* * *

- System: LXRb:RXRa (NR concentration 270 nM, RXRa partner concentration 90 nM)
- Experiment description: PBM binding z-score (relative to random genomic background probes); higher = stronger binding; sequences stand for … in GC…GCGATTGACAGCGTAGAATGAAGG
Property label: PBM binding z-score
# respond with the number and nothing more

// worked examples, PBM binding z-score included
> print(dat)
                           seq.string       property.label  numeric.result
1  TCTTGAAGATCAATAGAGGTTAAGAAAGTGCGCT  PBM binding z-score            1.99
2  GCCACTGGGGCATCAGCAGGTTACCATAACTTAA  PBM binding z-score           0.103
3  TAGCCTAGGTCATGTGCCAGTATACCACGCGAAC  PBM binding z-score             2.7
4  ACTAGCAGACCAAGGGTCACTCAAGATTAGTCCG  PBM binding z-score             2.8
5  ACTAGCAGGCCAAGTTTGGGTCGCTCAAACAAAG  PBM binding z-score          -0.551
6  TCTCGTAGATCAAGCAGGTTAAGAAAGCCTGAGT  PBM binding z-score         -0.0905
7  ACTTACGGGTCAACGAGGTTAAAGCACGCGTATA  PBM binding z-score            4.97
8  AGAATGAGGTTATTAAGATCAGGGTATTGCGGTC  PBM binding z-score            1.09

The sequence TCTATTAGATGAAGGGCAACCGACGAGTCCGTTT showed PBM binding z-score equal to 0.733

The sequence CCTATTAGTTTACCATAAGGGCAACCGAAGCTCG showed PBM binding z-score equal to 0.679

The sequence GATACAGGGTCAAGGCCAGCGTACGCGTATTGAT showed PBM binding z-score equal to 3.86

The sequence CCTAGATGGTCAAGGTCACACACGCTATAGGTAC showed PBM binding z-score equal to 3.69

The sequence CCTATTAGTTGACCATAGGGGCAACCGAAGCTCG showed PBM binding z-score equal to 0.153

The sequence CCTACTGGGCAAAAGGTCATTGATTCCAATGCTC showed PBM binding z-score equal to 4.36

The sequence GCATATAGGTAATACAAGGTGAGAGTCCGATTGT showed PBM binding z-score equal to 0.0719

The sequence CCTCGGAGGACAACAGGAGGTAAGAGCTGCCAGA showed PBM binding z-score equal to -0.701

The sequence CCTACCGGGCCATCAGGTCATTGATATCAACGTT showed PBM binding z-score equal to 1.66

The sequence TAAGACAGGTGAAGGTAACTCAGGTACGCAGTCG showed PBM binding z-score equal to 0.904

The sequence TCATATAGGTAAGTGCTAGGTGAAAGTCCGATCT showed PBM binding z-score equal to 0.207

The sequence CGAACTAGGTCAGAACGGGACAGTGAAGGATGAT showed PBM binding z-score equal to 0.113

The sequence CTCGAAAGGTCGTTCTCAGGTGAGTATACCAAAC showed PBM binding z-score equal to 3.68

The sequence CCAGACAGGTGAAAGTTAACTCAGTCTGGTACGC showed PBM binding z-score equal to 0.191

* * *

- System: VDR homodimer (NR concentration 270 nM)
- Experiment description: PBM binding z-score (relative to random genomic background probes); higher = stronger binding; sequences stand for … in GC…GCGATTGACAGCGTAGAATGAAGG
Property label: PBM binding z-score

> print(dat)
                            seq.string                           assayed.system       property.label   result
 1  TCATATAGGTAATACAGGTAAAAGTCGGCATCTA  VDR homodimer (NR concentration 270 nM)  PBM binding z-score   0.0521
 2  CGTCCCAGGTCATAGGAGGTCAGTGAAGACAGAT  VDR homodimer (NR concentration 270 nM)  PBM binding z-score     3.59
 3  CGTCAAAGATCAACTAAGGTAACGTAAAGCACGC  VDR homodimer (NR concentration 270 nM)  PBM binding z-score    0.342
 4  ATCTCTAGGTAAAGATAGTTCACTGAATGCAAAT  VDR homodimer (NR concentration 270 nM)  PBM binding z-score     1.13
 5  TCTATTAGTTGAACGGCAACCGACGAGTCCGTTT  VDR homodimer (NR concentration 270 nM)  PBM binding z-score    0.971
 6  ACAGACAGGTTAGTGAAGGTAACTCAGCTGGACG  VDR homodimer (NR concentration 270 nM)  PBM binding z-score  -0.0977
 7  ATCTCTAGGTAAAAGTTCAGTGAGTCCCGAGGAT  VDR homodimer (NR concentration 270 nM)  PBM binding z-score     2.34
 8  TTACCAAGATGAAGGTCGTTGATCCCTCTGTAGA  VDR homodimer (NR concentration 270 nM)  PBM binding z-score    0.756
 9  CCAGACGGGTGAAAGGTAACTCAGTCTGGTACGC  VDR homodimer (NR concentration 270 nM)  PBM binding z-score   -0.582
10  GCTTACGGGTCAGAGGTTATAGCATGAATAGAAT  VDR homodimer (NR concentration 270 nM)  PBM binding z-score    0.979

The sequence TCTAGTCGGTCACGGAGGTCACACACGACGGGTA showed PBM binding z-score equal to 3.72

The sequence CTACCAAGGTGAACAAGGGCGTTGATTACTATTC showed PBM binding z-score equal to 0.903

* * *

- System: PPARg:RXRa DBDmut IVT, anti-RXR (DBD mutation: RXRa K156A/R161A, NR concentration 270 nM, RXRa partner concentration 90 nM)
- Experiment description: PBM binding z-score (relative to random genomic background probes); higher = stronger binding; sequences stand for … in GC…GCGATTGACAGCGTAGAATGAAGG
Would you please tag the item class 1 when its PBM binding z-score is 2 or above, and class 0 when it is below?

> print(dat)
                           seq.string  label.value
1  CCGACTGAGGCAAGGTTACCATAACGCACAGCCA      class 0
2  CCCGAAAGGTCGGTTGAGGTGAGTATACGGATAA      class 0
3  ACTAGCAGGCCAAGTTTGGGTCACTTAAACAAAG      class 0

Quick check: does CGTCCAAGGTCAAAGGTCAGAGAAGAGATGACGG have PBM binding z-score greater than or equal to 2?
class 1

Quick check: does CCGAGTGGGTTATGGGGCATTCAGGCAACGGTGA have PBM binding z-score greater than or equal to 2?
class 0

Quick check: does TCTCGGAGGACAGGAAAGGTCAGAGCTCGACATC have PBM binding z-score greater than or equal to 2?
class 0
